# TARGET_DESC: UniProt:P35372
# Sequence (P35372 whole entry): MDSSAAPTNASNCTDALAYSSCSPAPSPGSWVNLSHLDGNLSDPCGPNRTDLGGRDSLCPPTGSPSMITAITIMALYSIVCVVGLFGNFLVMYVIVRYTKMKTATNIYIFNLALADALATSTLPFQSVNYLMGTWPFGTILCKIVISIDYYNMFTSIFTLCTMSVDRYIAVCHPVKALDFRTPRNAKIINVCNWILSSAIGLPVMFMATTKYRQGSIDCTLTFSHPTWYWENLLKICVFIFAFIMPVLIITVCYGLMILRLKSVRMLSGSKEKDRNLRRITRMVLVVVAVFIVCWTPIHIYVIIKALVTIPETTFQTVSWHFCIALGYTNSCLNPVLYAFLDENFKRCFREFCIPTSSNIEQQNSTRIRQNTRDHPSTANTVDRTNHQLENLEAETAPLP
Quick list: Ki per entry.
Provide only the numeric value, understood in nM.

Completed entries (count: 3):
- MOLECULE: "COc1ccc(NS(=O)(=O)c2sc3ccc(Cl)cc3c2C)cc1N1CCNCC1"
  UNIT_LABEL: "nM"
  Ki: 3580
- MOLECULE: "CCc1nn2c(C)cc(C)nc2c1Cc1ccc(-c2nnc(C3CCNCC3)o2)cc1"
  UNIT_LABEL: "nM"
  Ki: 7720
- MOLECULE: "CN[C@@H]1CCc2[nH]c3ccc(C(N)=O)cc3c2C1 [FROVATRIPTAN SUCCINATE]"
  UNIT_LABEL: "nM"
  Ki: 187

Would you kindly look at the next entry?
Q: // query Ki value for entry CN(C(=O)Cc1ccc(Cl)c(Cl)c1)C(CN1CCCC1)c1cccc(OCC(=O)O)c1 (centres undefined)
Result: 323
